Measured values drawn from patent US20210198269A1 for this set.

The reader will find reported IC50 values listed item by item below.
- target-under-test: GLUT3 (Homo sapiens)
- Construct: host or cells: DLD-1-GLUT1(-/-) cells
- Sequence (P11169 1-496): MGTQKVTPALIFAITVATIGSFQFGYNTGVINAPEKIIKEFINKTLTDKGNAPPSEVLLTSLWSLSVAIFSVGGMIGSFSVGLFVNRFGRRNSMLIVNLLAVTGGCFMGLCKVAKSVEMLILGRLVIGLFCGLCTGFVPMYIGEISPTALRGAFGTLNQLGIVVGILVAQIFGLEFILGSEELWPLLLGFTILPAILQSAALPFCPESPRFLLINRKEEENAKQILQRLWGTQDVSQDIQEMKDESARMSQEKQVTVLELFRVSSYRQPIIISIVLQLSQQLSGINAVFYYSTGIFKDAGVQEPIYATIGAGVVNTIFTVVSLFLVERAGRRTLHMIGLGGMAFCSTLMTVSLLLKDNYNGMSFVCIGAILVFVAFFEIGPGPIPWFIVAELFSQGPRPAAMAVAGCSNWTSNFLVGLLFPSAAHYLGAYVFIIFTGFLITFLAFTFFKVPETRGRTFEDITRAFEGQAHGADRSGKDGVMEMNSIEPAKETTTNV
- test-protocol: GLUT3 transporter activity assay (2-DG uptake) in DLD-1-GLUT1-/- cells
- Type: cell-based
- test-conditions: DLD-1-GLUT1-/- cell line; read-out: GLUT3 inhibitory activity (IC50)
outcome-measure: IC50

INSERT INTO measurements (compound, outcome_measure, result) VALUES
  ('Cc1ccc(CCNC(=O)c2cccc(N3C(=O)NC4CC3(C)Oc3c(OCc5cccnc5)cccc34)c2)cc1 (centres unmarked)', 'IC50', '300 to 1000 nM'),
  ('Cc1ccc(CCNC(=O)c2cccc(N3C(=O)NC4CC3(C)Oc3c(OCc5c(C)noc5C)cccc34)c2)cc1 (centres unmarked)', 'IC50', '300 to 1000 nM'),
  ('CC12CC(NC(=O)N1c1cccc(C(=O)NC3Cc4ccccc4C3)c1)c1cccc(OCc3ccccc3)c1O2 (centres unmarked)', 'IC50', '4000 to 10000 nM'),
  ('CC12CC(NC(=O)N1c1cccc(C(=O)NCc3ccccc3)c1)c1cccc(OCc3ccccc3)c1O2 (centres unmarked)', 'IC50', '4000 to 10000 nM'),
  ('CC12CC(NC(=O)N1c1cccc(C(=O)NCCCc3ccccc3)c1)c1cccc(OCc3ccccc3)c1O2 (centres unmarked)', 'IC50', '300 to 1000 nM'),
  ('Cc1ccc(CCNC(=O)c2cccc(N3C(=O)NC4CC3(C)Oc3c(OCc5ccc([N+](=O)[O-])cc5)cccc34)c2)cc1 (centres unmarked)', 'IC50', '300 to 1000 nM'),
  ('CC12CC(NC(=O)N1c1cccc(C(=O)NC3CCc4ccccc4C3)c1)c1cccc(OCc3ccccc3)c1O2 (centres unmarked)', 'IC50', '4000 to 10000 nM'),
  ('Cc1ccc(CCOC(=O)c2cccc(N3C(=O)NC4CC3(C)Oc3c(OCc5ccccc5)cccc34)c2)cc1 (centres unmarked)', 'IC50', '1000 to 4000 nM');
